All values here come from ChEMBL document CHEMBL4219143.

# Target Under Test: UniProt O60603
# Test Details: Antagonist activity at human TLR2 expressed in HEK-blue cells assessed as inhibition of Pam3CSK4-induced NF-kappaB activation-mediated SEAP production at 25 uM after 24 hrs by Quanti-blue-based assay
# Type: cell-based
Overview of recorded inhibition for various molecules
Assay Metric: inhibition (%)

{"columns": ["Chem Smiles", "Assay Metric", "Reading Unit", "Reported Value"],
 "data": [
  ["Oc1ccc(/N=C/c2cccc3ccccc23)cc1", "inhibition", "%", 44],
  ["COc1cccc(/C=N/c2ccc(-c3ccccc3)cc2)c1", "inhibition", "%", 0],
  ["CCOc1cccc(/C=N/c2ccc(O)cc2)c1O", "inhibition", "%", 5.77],
  ["COc1cccc(/C=N/c2cccc(C(=O)O)c2)c1O", "inhibition", "%", 0],
  ["Cc1c(/N=C/C=C/c2ccccc2)cccc1C(=O)O", "inhibition", "%", 1.74],
  ["COc1cccc(/C=N/c2ccccc2C(=O)c2ccccc2)c1O", "inhibition", "%", 1.86],
  ["COc1cccc(/C=N/c2ccc(O)cc2)c1O", "inhibition", "%", 14.9],
  ["COc1ccc(/N=C/c2cccc(OC)c2OC)cc1", "inhibition", "%", 0],
  ["Cc1c(/N=C\\c2c[nH]c3ccccc23)cccc1C(=O)O", "inhibition", "%", 2.39],
  ["Oc1ccc(/N=C/c2c(O)ccc3ccccc23)cc1", "inhibition", "%", 0],
  ["COc1ccc(/N=C/c2c(O)ccc3ccccc23)cc1", "inhibition", "%", 3.66],
  ["O=C(c1ccc(Cl)cc1)c1ccccc1/N=C/c1c(O)ccc2ccccc12", "inhibition", "%", 3.09]
]}

---

# Target Under Test: Toll-like receptor 2 (Homo sapiens) (UniProt O60603)
# Sequence (O60603 whole entry): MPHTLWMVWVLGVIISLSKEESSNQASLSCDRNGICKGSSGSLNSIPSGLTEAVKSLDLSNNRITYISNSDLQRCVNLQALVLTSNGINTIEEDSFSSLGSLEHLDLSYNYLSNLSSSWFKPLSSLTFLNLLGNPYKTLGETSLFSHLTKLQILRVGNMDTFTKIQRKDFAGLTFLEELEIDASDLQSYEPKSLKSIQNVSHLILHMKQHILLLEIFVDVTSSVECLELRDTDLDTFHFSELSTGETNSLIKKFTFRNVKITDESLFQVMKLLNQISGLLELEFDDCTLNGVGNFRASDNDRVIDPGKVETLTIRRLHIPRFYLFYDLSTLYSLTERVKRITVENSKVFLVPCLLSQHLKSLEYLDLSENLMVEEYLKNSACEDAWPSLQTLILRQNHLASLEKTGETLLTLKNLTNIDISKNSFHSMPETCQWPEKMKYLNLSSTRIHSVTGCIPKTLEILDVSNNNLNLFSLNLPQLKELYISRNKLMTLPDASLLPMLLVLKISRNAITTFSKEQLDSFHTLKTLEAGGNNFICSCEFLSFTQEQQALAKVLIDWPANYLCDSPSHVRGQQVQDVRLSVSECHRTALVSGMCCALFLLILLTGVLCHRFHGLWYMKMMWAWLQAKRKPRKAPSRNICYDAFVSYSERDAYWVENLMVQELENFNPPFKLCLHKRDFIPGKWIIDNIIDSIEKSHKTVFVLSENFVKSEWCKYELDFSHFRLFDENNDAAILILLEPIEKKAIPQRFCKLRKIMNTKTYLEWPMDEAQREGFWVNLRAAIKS
# Test Details: Antagonist activity at human TLR2 expressed in HEK-blue cells assessed as inhibition of Pam3CSK4-induced NF-kappaB activation-mediated SEAP production at 25 uM after 24 hrs by Quanti-blue-based assay
# Assay type: cell-based
Measured inhibition, listed per entry.
Assay Metric: inhibition

{"columns": ["Chem Smiles", "Reported Value"],
 "data": [
  ["COc1ccc(/N=C/C=C/c2ccccc2)cc1", "3.99%"],
  ["COc1cccc(/C=N/c2cccc(C(=O)O)c2C)c1O", "14.9%"],
  ["CCOc1cccc(/C=N/c2ccccc2C(=O)c2ccc(Cl)cc2)c1O", "35.5%"],
  ["Cc1c(/N=C/c2c(O)ccc3ccccc23)cccc1C(=O)O", "0%"],
  ["Oc1ccc2ccccc2c1/C=N/c1ccc(-c2ccccc2)cc1", "5.35%"],
  ["O=C(O)c1ccc(C(F)(F)F)cc1/N=C\\c1c[nH]c2ccccc12", "0.33%"],
  ["C(=N\\c1ccc(-c2ccccc2)cc1)/c1cccc2ccccc12", "0%"],
  ["COc1cccc(/C=N/c2ccc(O)cc2)c1", "0.74%"],
  ["Cc1cccc(/N=C/c2cccc(O)c2O)c1C(=O)O", "15%"],
  ["O=C(O)c1cccc(/N=C/c2c(O)ccc3ccccc23)c1", "0%"],
  ["COc1ccc(/N=C\\c2c[nH]c3ccccc23)cc1", "2.11%"],
  ["COc1cccc(/C=N/c2cccc(C(=O)O)c2C)c1", "0.99%"],
  ["CCOc1cccc(/C=N/c2ccc(-c3ccccc3)cc2)c1O", "24.2%"],
  ["Cc1cccc(/N=C/c2c(O)ccc3ccccc23)c1C(=O)O", "0%"],
  ["O=C(c1ccccc1)c1ccccc1/N=C/c1c(O)ccc2ccccc12", "2.72%"],
  ["CCOc1cccc(/C=N/c2ccc(OC)cc2)c1O", "8.33%"],
  ["CCOc1cccc(/C=N/c2cccc(C(=O)O)c2C)c1O", "5.43%"],
  ["COc1cc(/C=N/c2ccc(O)cc2)ccc1O", "7.51%"],
  ["COc1cccc(/C=N/c2ccc(-c3ccccc3)cc2)c1O", "23.3%"],
  ["COc1ccc(/N=C/c2ccc(O)c(OC)c2)cc1", "0%"],
  ["FC(F)(F)c1ccc(/C=N/c2ccc(-c3ccccc3)cc2)cc1", "5.07%"],
  ["COc1cccc(/C=N/c2ccccc2C(=O)c2ccc(Cl)cc2)c1O", "66.8%"],
  ["COc1cccc(CNc2ccccc2C(=O)c2ccc(Cl)cc2)c1O", "0%"],
  ["O=C(O)c1ccc(C(F)(F)F)cc1/N=C/c1c(O)ccc2ccccc12", "2.53%"],
  ["COc1ccc(/N=C/c2cccc(OC)c2O)cc1", "3.77%"],
  ["C(=N/c1ccc(-c2ccccc2)cc1)/c1c[nH]c2ccccc12", "2.35%"]
]}
